- TESTED TARGET: glucocorticoid receptor (GR) (Homo sapiens, UniProt P04150)
- Construct: Preparation of HeLa Cell Lysate; endogenous in cells
- Sequence (P04150 1-777): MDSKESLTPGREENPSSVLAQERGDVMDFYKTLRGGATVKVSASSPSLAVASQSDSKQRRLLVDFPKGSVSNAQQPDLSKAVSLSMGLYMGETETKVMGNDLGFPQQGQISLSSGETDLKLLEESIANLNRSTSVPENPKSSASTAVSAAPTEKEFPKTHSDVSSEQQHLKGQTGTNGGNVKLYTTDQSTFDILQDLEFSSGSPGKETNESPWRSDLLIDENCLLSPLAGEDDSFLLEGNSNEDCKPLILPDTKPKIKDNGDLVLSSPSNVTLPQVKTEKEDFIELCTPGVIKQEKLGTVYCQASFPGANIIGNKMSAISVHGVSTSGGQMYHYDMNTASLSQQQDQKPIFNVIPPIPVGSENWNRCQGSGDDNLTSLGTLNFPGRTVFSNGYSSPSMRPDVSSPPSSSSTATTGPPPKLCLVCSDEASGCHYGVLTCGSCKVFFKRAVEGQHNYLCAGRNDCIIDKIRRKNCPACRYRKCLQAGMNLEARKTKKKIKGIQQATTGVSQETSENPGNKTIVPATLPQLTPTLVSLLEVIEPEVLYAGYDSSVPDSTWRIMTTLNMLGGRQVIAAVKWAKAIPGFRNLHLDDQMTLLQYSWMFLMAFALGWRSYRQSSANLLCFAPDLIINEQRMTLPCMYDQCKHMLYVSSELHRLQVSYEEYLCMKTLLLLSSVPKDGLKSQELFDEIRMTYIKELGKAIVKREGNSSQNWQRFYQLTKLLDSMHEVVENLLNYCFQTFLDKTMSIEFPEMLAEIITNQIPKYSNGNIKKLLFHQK
- EXPERIMENT SUMMARY: GR Ligand Binding Assay (BIND), 3H-dexamethasone displacement in HeLa cell lysate
- CONDITIONS USED: 3H-DEX trace, 4° C. overnight
Cut-off 7 nM on Ki: below means YES, at or above means NO.

molecule="COc1ccccc1C(O)C[C@H]1CCC2=Cc3c(cnn3-c3cccnc3)C[C@@]21C (single isomer, unassigned) [Example 2b]" group_label=NO
molecule="C[C@]12Cc3cnn(-c4cccnc4)c3C=C1CC[C@@H]2CC(O)c1ccccc1 (single isomer, unassigned) [Example 1b]" group_label=NO
molecule="COc1ccc(C(O)C[C@H]2CCC3=Cc4c(cnn4-c4cccnc4)C[C@@]32C)cn1 (stereo partly drawn)" group_label=NO
molecule="COc1ccccc1C(O)C[C@H]1CCC2=Cc3c(cnn3-c3cccnc3)C[C@@]21C (single isomer, unassigned) [Example 2a]" group_label=NO
molecule="COc1ccc(C(O)C[C@H]2CCC3=Cc4c(cnn4-c4cccnc4)C[C@@]32C)cc1 (stereo partly drawn)" group_label=YES
molecule="C[C@]12Cc3cnn(-c4cccnc4)c3C=C1CC[C@@H]2CC(O)c1ccccn1 (single isomer, unassigned) [Example 6a]" group_label=NO
molecule="COc1cccc(C(O)C[C@H]2CCC3=Cc4c(cnn4-c4cccnc4)C[C@@]32C)c1 (single isomer, unassigned) [Example 4a]" group_label=YES
molecule="CC(O)(C[C@H]1CCC2=Cc3c(cnn3-c3cccnc3)C[C@@]21C)c1ccccc1 (single isomer, unassigned) [Example 7a]" group_label=YES
molecule="CC(O)(C[C@H]1CCC2=Cc3c(cnn3-c3cccnc3)C[C@@]21C)c1ccccc1 (single isomer, unassigned) [Example 7b]" group_label=YES
molecule="C[C@]12Cc3cnn(-c4cccnc4)c3C=C1CC[C@@H]2CC(O)c1ccccn1 (single isomer, unassigned) [Example 6b]" group_label=NO
molecule="COc1cccc(C(O)C[C@H]2CCC3=Cc4c(cnn4-c4cccnc4)C[C@@]32C)c1 (single isomer, unassigned) [Example 4b]" group_label=NO
molecule="C[C@]12Cc3cnn(-c4cccnc4)c3C=C1CC[C@@H]2CC(O)c1ccccc1 (single isomer, unassigned) [Example 1a]" group_label=YES

* * *

- Tested on: human GR (TNFα promoter β-lactamase reporter, U937 cells)
- EXPERIMENT SUMMARY: Transrepression Assay (GITAR), TNFα-β-lactamase reporter in U937 cells
- Format: cell-based
- CONDITIONS USED: Homo sapiens, U-937, U937 cells; activity repressed by 100 nM dexamethasone set as 100%
Below: a set of entries, each annotated with reported Emax.
ASSAY METRIC: Emax (%)

molecule="C[C@]12Cc3cnn(-c4cccnc4)c3C=C1CC[C@@H]2CC(O)c1ccccn1 (single isomer, unassigned)" readout_value=16.6
molecule="COc1ccccc1C(O)C[C@H]1CCC2=Cc3c(cnn3-c3cccnc3)C[C@@]21C (single isomer, unassigned)" readout_value=73.9
molecule="CC(O)(C[C@H]1CCC2=Cc3c(cnn3-c3cccnc3)C[C@@]21C)c1ccccc1 (single isomer, unassigned)" readout_value=84.2
molecule="COc1ccc(C(O)C[C@H]2CCC3=Cc4c(cnn4-c4cccnc4)C[C@@]32C)cn1 (some centres unmarked)" readout_value=85.2
molecule="COc1ccc(C(O)C[C@H]2CCC3=Cc4c(cnn4-c4cccnc4)C[C@@]32C)cc1 (some centres unmarked)" readout_value=87.3

* * *

- System: human GR (TNFα promoter β-lactamase reporter, U937 cells)
- EXPERIMENT SUMMARY: Transrepression Assay (GITAR), TNFα-β-lactamase reporter in U937 cells
- Assay type: cell-based
- CONDITIONS USED: U937 cells, TNFα-β-lactamase reporter, PMA/LPS stimulated; read-out: Transrepression U937 Cells GITAR IP (inflection point)
The reader will find reported EC50 values listed item by item below.
ASSAY METRIC: EC50 (nM)

compound="COc1cccc(C(O)C[C@H]2CCC3=Cc4c(cnn4-c4cccnc4)C[C@@]32C)c1 (single isomer, unassigned) [Example 4a]" readout_value=114
compound="COc1ccccc1C(O)C[C@H]1CCC2=Cc3c(cnn3-c3cccnc3)C[C@@]21C (single isomer, unassigned) [Example 2b]" readout_value=1160
compound="C[C@]12Cc3cnn(-c4cccnc4)c3C=C1CC[C@@H]2CC(O)c1ccccc1 (single isomer, unassigned) [Example 1a]" readout_value=277
compound="CC(O)(C[C@H]1CCC2=Cc3c(cnn3-c3cccnc3)C[C@@]21C)c1ccccc1 (single isomer, unassigned) [Example 7a]" readout_value=78.7
